biological target: Q46 protein aggregates (Homo sapiens, UniProt P42858, INS38QQQQQQQQQQQQQQQQQQQQQQQQQ); construct: fused on or other part: GST at the N-terminus, cut off by thrombin before the test to start aggregation; assay: Q46 Radioligand Binding Assay (RBA); conditions: displacement of 10 nM [3H3]MK-3328 from 5 μM aggregated Q46 protein, 60 minutes at 37° C.
Sequence (P42858 with tags, fused parts or gaps with the stated changes): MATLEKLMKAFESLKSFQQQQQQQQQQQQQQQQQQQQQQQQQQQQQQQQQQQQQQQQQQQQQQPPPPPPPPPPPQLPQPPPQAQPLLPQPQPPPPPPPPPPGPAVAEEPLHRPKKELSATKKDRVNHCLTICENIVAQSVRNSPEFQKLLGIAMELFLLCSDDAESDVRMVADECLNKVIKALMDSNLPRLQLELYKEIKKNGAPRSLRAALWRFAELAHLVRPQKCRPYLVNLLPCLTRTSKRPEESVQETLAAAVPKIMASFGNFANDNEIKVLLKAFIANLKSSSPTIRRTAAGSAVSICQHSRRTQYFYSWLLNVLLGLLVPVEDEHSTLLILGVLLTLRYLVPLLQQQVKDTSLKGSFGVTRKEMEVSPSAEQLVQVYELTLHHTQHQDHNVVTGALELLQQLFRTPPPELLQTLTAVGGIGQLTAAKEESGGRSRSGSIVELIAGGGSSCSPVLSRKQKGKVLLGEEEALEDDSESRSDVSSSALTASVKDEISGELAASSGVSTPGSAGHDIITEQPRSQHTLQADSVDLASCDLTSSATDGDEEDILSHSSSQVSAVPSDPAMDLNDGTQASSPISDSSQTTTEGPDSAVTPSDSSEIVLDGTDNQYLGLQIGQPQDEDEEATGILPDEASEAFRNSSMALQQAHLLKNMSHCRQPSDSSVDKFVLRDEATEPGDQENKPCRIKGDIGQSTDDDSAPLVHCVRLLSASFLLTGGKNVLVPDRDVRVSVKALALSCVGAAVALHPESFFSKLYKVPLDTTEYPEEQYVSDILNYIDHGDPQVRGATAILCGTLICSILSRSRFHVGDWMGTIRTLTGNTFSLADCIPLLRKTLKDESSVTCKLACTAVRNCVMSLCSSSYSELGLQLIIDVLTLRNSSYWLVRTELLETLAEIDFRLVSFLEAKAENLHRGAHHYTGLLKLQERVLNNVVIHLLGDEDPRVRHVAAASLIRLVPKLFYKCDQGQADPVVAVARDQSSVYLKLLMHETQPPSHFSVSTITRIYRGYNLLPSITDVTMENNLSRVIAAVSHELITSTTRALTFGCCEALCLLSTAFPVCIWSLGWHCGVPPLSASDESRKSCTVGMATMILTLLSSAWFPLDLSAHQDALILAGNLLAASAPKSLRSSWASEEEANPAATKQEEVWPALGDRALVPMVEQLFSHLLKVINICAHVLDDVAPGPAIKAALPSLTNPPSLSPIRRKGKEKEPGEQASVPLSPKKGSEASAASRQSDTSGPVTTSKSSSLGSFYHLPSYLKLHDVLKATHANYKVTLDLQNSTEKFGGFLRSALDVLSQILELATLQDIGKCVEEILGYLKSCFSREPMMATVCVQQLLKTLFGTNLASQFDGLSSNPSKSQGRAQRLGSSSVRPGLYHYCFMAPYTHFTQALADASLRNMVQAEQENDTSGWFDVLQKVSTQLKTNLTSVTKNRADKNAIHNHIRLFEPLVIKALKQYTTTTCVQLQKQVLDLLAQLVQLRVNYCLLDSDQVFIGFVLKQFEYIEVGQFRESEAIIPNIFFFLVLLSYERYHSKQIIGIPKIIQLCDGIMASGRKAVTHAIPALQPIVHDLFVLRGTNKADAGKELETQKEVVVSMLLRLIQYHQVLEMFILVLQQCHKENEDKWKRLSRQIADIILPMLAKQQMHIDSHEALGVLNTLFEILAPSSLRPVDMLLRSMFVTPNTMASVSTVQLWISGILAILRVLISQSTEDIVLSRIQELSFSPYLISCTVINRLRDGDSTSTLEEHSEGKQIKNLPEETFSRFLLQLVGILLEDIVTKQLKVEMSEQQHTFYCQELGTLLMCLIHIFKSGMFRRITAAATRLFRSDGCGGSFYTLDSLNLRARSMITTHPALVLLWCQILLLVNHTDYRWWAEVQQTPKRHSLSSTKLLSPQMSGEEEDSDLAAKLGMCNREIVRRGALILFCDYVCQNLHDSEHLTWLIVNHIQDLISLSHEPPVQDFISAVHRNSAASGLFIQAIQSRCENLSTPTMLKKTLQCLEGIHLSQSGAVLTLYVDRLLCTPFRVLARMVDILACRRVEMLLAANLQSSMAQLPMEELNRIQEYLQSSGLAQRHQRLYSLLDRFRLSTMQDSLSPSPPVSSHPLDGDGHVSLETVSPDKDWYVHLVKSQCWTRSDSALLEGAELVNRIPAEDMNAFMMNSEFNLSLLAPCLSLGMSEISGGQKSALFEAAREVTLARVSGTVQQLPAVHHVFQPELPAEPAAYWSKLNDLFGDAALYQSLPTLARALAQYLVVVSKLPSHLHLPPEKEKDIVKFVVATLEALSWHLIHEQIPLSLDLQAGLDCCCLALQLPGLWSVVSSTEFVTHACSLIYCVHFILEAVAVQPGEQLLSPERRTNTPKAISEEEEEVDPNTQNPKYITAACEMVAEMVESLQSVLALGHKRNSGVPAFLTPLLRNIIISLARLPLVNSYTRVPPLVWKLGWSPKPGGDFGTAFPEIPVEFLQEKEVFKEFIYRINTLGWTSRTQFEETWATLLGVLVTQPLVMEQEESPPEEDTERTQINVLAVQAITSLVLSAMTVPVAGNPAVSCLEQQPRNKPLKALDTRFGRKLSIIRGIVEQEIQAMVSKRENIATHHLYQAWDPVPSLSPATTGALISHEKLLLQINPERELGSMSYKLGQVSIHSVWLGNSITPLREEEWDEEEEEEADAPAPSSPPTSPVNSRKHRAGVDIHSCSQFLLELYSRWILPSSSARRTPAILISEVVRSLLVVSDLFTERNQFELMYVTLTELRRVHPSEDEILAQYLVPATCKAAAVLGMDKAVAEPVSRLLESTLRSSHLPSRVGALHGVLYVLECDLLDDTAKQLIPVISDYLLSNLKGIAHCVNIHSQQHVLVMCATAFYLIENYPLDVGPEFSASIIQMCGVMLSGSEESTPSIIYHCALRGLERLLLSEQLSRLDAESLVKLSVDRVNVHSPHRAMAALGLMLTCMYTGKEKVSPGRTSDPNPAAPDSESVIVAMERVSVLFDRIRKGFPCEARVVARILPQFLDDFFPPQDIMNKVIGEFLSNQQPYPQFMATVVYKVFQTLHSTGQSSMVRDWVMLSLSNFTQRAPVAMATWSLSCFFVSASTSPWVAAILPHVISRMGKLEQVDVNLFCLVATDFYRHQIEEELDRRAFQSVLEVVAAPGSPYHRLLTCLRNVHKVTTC
ASSAY READOUT: IC50

For the compound shown here, "OCCNc1c(-c2cc3cc(O)ccc3o2)nc2ccccn12" , give the reported IC50.
0.1 to 0.5 µM

Moving on to "CNc1c(-c2cc3cc(OC)ccc3o2)nc2ccc(F)cn12"
< 0.1 µM

Moving on to "CNc1c(-c2cc3cc(F)ccc3o2)nc2ccccn12"
> 0.5 µM

Moving on to "CNc1c(-c2ccc(OCc3cnc(OC)cn3)nc2)nc2cc(C#N)ccn12"
< 0.1 µM

Moving on to "CNc1c(-c2cc3cc(F)ccc3o2)nc2cc(C#N)ccn12"
< 0.1 µM

Moving on to "CNc1c(-c2cc3cc(OC)ccc3o2)nc2cc(Br)ccn12"
< 0.1 µM

Moving on to "CNc1c(-c2ccc(C#N)cc2)nc2cc(C#N)ccn12"
< 0.1 µM

Moving on to "CNc1c(-c2ccc3c(c2)OCCO3)nc2cc(C#N)ccn12"
0.1 to 0.5 µM

Moving on to "COc1ccc2oc(-c3nc4cc(C#N)ccn4c3NCCN(C)C)cc2c1"
0.1 to 0.5 µM

Moving on to "CNc1c(-c2ccc(COCc3cccnc3)cc2)nc2cc(C#N)ccn12"
0.1 to 0.5 µM
